Note to self: these compounds have IC50 reported for Epithelial discoidin domain-containing receptor 1 (Homo sapiens, UniProt Q08345) in various publications.

COMPOUND	TARGET_UNDER_TEST	REL	IC50 / nM
CC1CN(c2cncnc2)Cc2cc(C(=O)Nc3cc(CN4CCN(CCC(=O)NCCCNC(=O)OC5CC/C=C/CCC5)CC4)cc(C(F)(F)F)c3)ccc21 (stereo unspecified)	Epithelial discoidin domain-containing receptor 1 (Homo sapiens, UniProt Q08345)	=	397
COc1ccc(C(=O)NC[C@@H](O)CO)cc1/C=C/c1ccc(Cl)cc1	Epithelial discoidin domain-containing receptor 1 (Homo sapiens, UniProt Q08345)	>	50000
CO[C@H]1OC(=O)[C@@]2(CC(=O)c3cc(O)ccc3O)C[C@@H]3[C@@H](C/C=C(\CC(=O)c4cc(O)ccc4O)C(=O)O)C(C=O)=CO[C@@H]3[C@@]12C (racemic)	Epithelial discoidin domain-containing receptor 1 (Homo sapiens, UniProt Q08345)	=	8200
O=C(NCc1cccc(NC(=O)c2cnc3ccccn23)c1)Nc1ccccc1	Epithelial discoidin domain-containing receptor 1 (Homo sapiens, UniProt Q08345)	=	150
CC(C)[C@@H]1CN(c2cncnc2)Cc2cc(C(=O)Nc3cc(CN4CCN(C)CC4)cc(C(F)(F)F)c3)ccc21	Epithelial discoidin domain-containing receptor 1 (Homo sapiens, UniProt Q08345)	>	3000
Cc1ccc(NC(=O)c2cccc(CN3CCN(C)CC3)c2)cc1Oc1ccc(-c2n[nH]c3ncnc(N)c23)cc1	Epithelial discoidin domain-containing receptor 1 (Homo sapiens, UniProt Q08345)	=	1210

----------
Note to self: these molecules have IC50 reported for Epithelial discoidin domain-containing receptor 1 (Homo sapiens) in various publications.

SMILES_DATA	TARGET_UNDER_TEST	IC50 [nM]
Cc1ccc(NC(=O)c2cccc(C(F)(F)F)c2)cc1OC1CCN(C(=O)c2ccncc2)CC1	Epithelial discoidin domain-containing receptor 1 (Homo sapiens)	126
Cc1ccc(NC(=O)c2ccc(CN3CCOCC3)c(C(F)(F)F)c2)cc1Oc1ccc(-c2n[nH]c3ncnc(N)c23)cc1	Epithelial discoidin domain-containing receptor 1 (Homo sapiens)	416
C=CC(=O)Nc1cc(Nc2ncc(C(=O)Nc3cc(NC(=O)c4cc(OC)c(OC)c(OC)c4)ccc3C)c(NC)n2)ccc1C	Epithelial discoidin domain-containing receptor 1 (Homo sapiens)	265
CCN1CCN(Cc2ccc(C(=O)Nc3ccc(C)c(Oc4ccc(-c5n[nH]c6ncnc(N)c56)cc4)c3)cc2C(F)(F)F)CC1	Epithelial discoidin domain-containing receptor 1 (Homo sapiens)	70

----------
Note to self: these compounds have IC50 reported for Epithelial discoidin domain-containing receptor 1 (Homo sapiens) in various publications.
EXPERIMENTAL_READOUT: IC50

SMILES_DATA	EXPERIMENTAL_READOUT	DATA_VALUE
Cc1cn(-c2cc(NC(=O)c3cc4cc(c3C)C#Cc3cnc5ccc(nn35)N(C)CCNC(=O)CCCCO4)cc(C(F)(F)F)c2)cn1	IC50	0.0264 µM
CN1CCN(Cc2ccc(C(=O)Nc3cccc(Oc4ccc(-c5n[nH]c6ncnc(N)c56)cc4)c3)cc2C(F)(F)F)CC1	IC50	0.044 µM
COc1ccc(C(=O)NC[C@H](O)CO)cc1/C=C/c1ccc(Cl)cc1	IC50	> 50 µM
Cc1ccc(-c2cn([C@H]3CC[C@@H](N)CC3)c3ncnc(N)c23)c(F)c1	IC50	0.015 µM
Cc1ccc(NC(=O)c2ccc(CN3CCN(C)CC3)c(I)c2)cc1Oc1ccc(-c2n[nH]c3ncnc(N)c23)cc1	IC50	0.131 µM
CCc1ccc2c(c1)c(=O)c(C(=O)Nc1ccc(Oc3ncnc4cc(OC)c(OC)cc34)c(F)c1)c(C)n2C	IC50	0.0222 µM
Cc1ccc(NC(=O)c2ccc(CN3CCOCC3)c(Cl)c2)cc1Oc1ccc(-c2n[nH]c3ncnc(N)c23)cc1	IC50	2.17 µM
Cc1nc2c(cnn2-c2csc(C(=O)NC3COC3)c2)cc1Nc1c(F)cccc1Cl	IC50	0.247 µM
Cc1ccc(C(=O)Nc2ccc(CN3CCN(C)CC3)c(C(F)(F)F)c2)cc1C#Cc1cnc2ccnn2c1	IC50	0.005 µM
Cc1ccc(C(=O)N2CCC(Oc3cc(NC(=O)c4ccc(CN5CCN(C)CC5)c(C(F)(F)F)c4)ccc3C)CC2)cn1	IC50	0.116 µM
CC(C)[C@H]1CN(c2cncnc2)Cc2cc(C(=O)Nc3cc(CN4CCN(C)CC4)cc(C(F)(F)F)c3)ccc21	IC50	> 1 µM
CN(C)c1ccc2c(Oc3ccc(NC(=O)NCc4ccc(C(F)(F)F)nc4)cc3)ncnc2c1	IC50	0.0597 µM
Cc1ccc([C@@H](C)NC(=O)Nc2ccccc2)cc1NC(=O)c1cnc2ccccn12	IC50	1.5 µM
CC1(C)OCC(=O)Nc2cc(Nc3nc(NCC(F)(F)F)c4occc4n3)ccc21	IC50	> 10 µM
Cc1ccc(NC(=O)c2ccc(CN3CCN(C)CC3)cc2)cc1Oc1ccc(-c2n[nH]c3ncnc(N)c23)cc1	IC50	2.69 µM
O=C1Nc2ccccc2N/C1=C\C(=O)c1cccc2ccccc12	IC50	0.16 µM
Cc1ccc(NC(=O)c2ccc(CN3CCC(C)CC3)c(C(F)(F)F)c2)cc1Oc1ccc(-c2n[nH]c3ncnc(N)c23)cc1	IC50	2.81 µM
